- Organism: Rattus norvegicus
- assaySummary: DrugMatrix - Regimen: Daily Repeat
- Assay type: toxicity, organism-based, Sprague-Dawley
- Design: regimen Daily Repeat, gender Male, age 6-8 weeks
- conditionInfo: in vivo, po, 0 mg/kg, 120 h, tissue Blood, route oral GAVAGE, dose level Control, time 5 day, vehicle .5 % CMC
resultType: ERYTHROCYTE COUNT (x10E6/uL)
// units = x10E6/uL; emit number, no label

Exam item: Using the record for CN1C(C(=O)Nc2ccccn2)=C(O)c2ccccc2S1(=O)=O [PIROXICAM] , state its measured ERYTHROCYTE COUNT.
Marked response: 5.88

Exam item: Using the record for CC1(C)[C@H]2CC[C@]1(C)C(=O)C2 [(-)-CAMPHOR] , state its measured ERYTHROCYTE COUNT.
Marked response: 5.78

Exam item: Using the record for COC(=O)c1ccc(O)cc1 [METHYLPARABEN] , state its measured ERYTHROCYTE COUNT.
Marked response: 5.65

Exam item: Using the record for NCC(=O)O [GLYCINE] , state its measured ERYTHROCYTE COUNT.
Marked response: 6.12

Exam item: Using the record for O=c1cc(-c2ccccc2)oc2c1ccc1ccccc12 [ALPHA-NAPHTHOFLAVONE] , state its measured ERYTHROCYTE COUNT.
Marked response: 7.51

Exam item: Using the record for O=c1[nH]cc(F)c(=O)[nH]1 [FLUOROURACIL] , state its measured ERYTHROCYTE COUNT.
Marked response: 5.53

Exam item: Using the record for O=C1CCc2cc(OCCCCc3nnnn3C3CCCCC3)ccc2N1 [CILOSTAZOL] , state its measured ERYTHROCYTE COUNT.
Marked response: 7.12

Exam item: Using the record for CCC[C@@H]1C[C@@H](C(=O)N[C@@H]([C@H]2O[C@H](SC)[C@H](O)[C@@H](O)[C@H]2O)[C@@H](C)O)N(C)C1 [LINCOMYCIN] , state its measured ERYTHROCYTE COUNT.
Marked response: 5.71

Exam item: Using the record for CCc1ccc(C(=O)C(C)CN2CCCCC2)cc1 (stereo not given) [EPERISONE] , state its measured ERYTHROCYTE COUNT.
Marked response: 5.66

Exam item: Using the record for CN1CCC[C@@H]1CCO[C@](C)(c1ccccc1)c1ccc(Cl)cc1 [CLEMASTINE] , state its measured ERYTHROCYTE COUNT.
Marked response: 5.32

----------
- Organism: Rattus norvegicus
- assaySummary: DrugMatrix - Regimen: Daily Repeat
- Format: toxicity, organism-based, Sprague-Dawley
- Set-up: regimen Daily Repeat, gender Male, age 6-8 weeks
- conditionInfo: in vivo, po, 0 mg/kg, 120 h, tissue Blood, route oral GAVAGE, dose level Control, time 5 day, vehicle .5 % CMC
Label Y when LEUKOCYTE COUNT is at or above 10 x10E3/uL; anything below gets N.

compound: CN1C(C(=O)Nc2ccccn2)=C(O)c2ccccc2S1(=O)=O
category: Y
--
compound: CC(/C=C1\SC(=S)N(CC(=O)O)C1=O)=C\c1ccccc1
category: Y
--
compound: COC(=O)c1ccc(O)cc1
category: Y
--
compound: O=c1cc(-c2ccccc2)oc2c1ccc1ccccc12
category: N

Lab note: next compound to report on.
Exam item: Please tell me: is the compound CC1(C)[C@H]2CC[C@]1(C)C(=O)C2 [(-)-CAMPHOR] at or over 10 x10E3/uL in terms of LEUKOCYTE COUNT?
Marked response: Y

----------
Parameter ERYTHROCYTE COUNT: see the listing below.
- Species on record: Rattus norvegicus
- assaySummary: DrugMatrix - Regimen: Daily Repeat
- Type: toxicity, organism-based, Sprague-Dawley
- Design: regimen Daily Repeat, gender Male, age 6-8 weeks
- conditionInfo: in vivo, po, 0 mg/kg, 120 h, tissue Blood, route oral GAVAGE, dose level Control, time 5 day, vehicle 100 % WATER
// units = x10E6/uL; emit number, no label

# annotated cases, reported ERYTHROCYTE COUNT shown
entrySmiles: COc1cc2c(N3CCN(C(=O)Nc4ccc(OC(C)C)cc4)CC3)ncnc2cc1OCCCN1CCCCC1
value: 6.93

entrySmiles: CNCCC=C1c2ccccc2CCc2ccccc21
value: 5.53

entrySmiles: NCC1(CC(=O)O)CCCCC1
value: 5.42

entrySmiles: CC1(C)S[C@@H]2[C@H](NC(=O)[C@H](N)c3ccc(O)cc3)C(=O)N2[C@H]1C(=O)O
value: 5.74

Next:
Exam item: Using the record for "CC(C)(S)[C@@H](N)C(=O)O" , state its measured ERYTHROCYTE COUNT.
Marked response: 5.49

----------
- Organism: Rattus norvegicus
- assaySummary: DrugMatrix - Regimen: Daily Repeat
- Assay type: toxicity, organism-based, Sprague-Dawley
- Parameters: regimen Daily Repeat, gender Male, age 6-8 weeks
- conditionInfo: in vivo, po, 0 mg/kg, 120 h, tissue Plasma, route oral GAVAGE, dose level Control, time 5 day, vehicle 100 % WATER
resultType: ALKALINE PHOSPHATASE (u/L)
// units = u/L; emit number, no label

molecule: CN1CCC[C@H]1c1cccnc1
ALKALINE PHOSPHATASE / u/L: 391.5

Exam item: Using the record for CC1COc2c(N3CCN(C)CC3)c(F)cc3c(=O)c(C(=O)O)cn1c23 (stereo unspecified) , state its measured ALKALINE PHOSPHATASE.
Marked response: 391.5

Exam item: Using the record for "Fc1ccc([C@@H]2CCNC[C@H]2COc2ccc3c(c2)OCO3)cc1" , state its measured ALKALINE PHOSPHATASE.
Marked response: 343.17

Exam item: Using the record for "CNCCC=C1c2ccccc2CCc2ccccc21" , state its measured ALKALINE PHOSPHATASE.
Marked response: 395

Exam item: Using the record for "CC1(C)S[C@@H]2[C@H](NC(=O)[C@H](N)c3ccc(O)cc3)C(=O)N2[C@H]1C(=O)O" , state its measured ALKALINE PHOSPHATASE.
Marked response: 414.5

Exam item: Using the record for "NCC1(CC(=O)O)CCCCC1" , state its measured ALKALINE PHOSPHATASE.
Marked response: 333.83

Exam item: Using the record for COc1cccc(C2(O)CCCCC2CN(C)C)c1 (stereo unspecified) , state its measured ALKALINE PHOSPHATASE.
Marked response: 343.17

----------
- Species on record: Rattus norvegicus
- assaySummary: DrugMatrix - Regimen: Daily Repeat
- Type: toxicity, organism-based, Sprague-Dawley
- Parameters: regimen Daily Repeat, gender Male, age 6-8 weeks
- conditionInfo: in vivo, iv, 0 mg/kg, 120 h, tissue Blood, dose level Control, time 5 day, vehicle 100 % SALINE
resultType: MEAN CORPUSCULAR VOLUME (fL)
// units = fL; emit number, no label

compound: NCC[C@H](O)C(=O)N[C@@H]1C[C@H](N)[C@@H](O[C@H]2O[C@H](CN)[C@@H](O)[C@H](O)[C@H]2O)[C@H](O)[C@H]1O[C@H]1O[C@H](CO)[C@@H](O)[C@H](N)[C@H]1O [AMIKACIN]
value: 62.95

Exam item: Using the record for CC1(C)S[C@@H]2[C@H](NC(=O)[C@H](NC(=O)N3CCNC3=O)c3ccccc3)C(=O)N2[C@H]1C(=O)O [AZLOCILLIN] , state its measured MEAN CORPUSCULAR VOLUME.
Marked response: 62.37

Exam item: Using the record for CC[C@@]1(O)C(=O)OCc2c1cc1n(c2=O)Cc2cc3ccccc3nc2-1 [CAMPTOTHECIN] , state its measured MEAN CORPUSCULAR VOLUME.
Marked response: 63.08

Exam item: Using the record for CN(N=O)C(=O)N[C@@H](C=O)[C@@H](O)[C@H](O)[C@H](O)CO [STREPTOZOCIN] , state its measured MEAN CORPUSCULAR VOLUME.
Marked response: 64.33

----------
- Species on record: Rattus norvegicus
- assaySummary: DrugMatrix - Regimen: Daily Repeat
- Type: toxicity, organism-based, Sprague-Dawley
- Parameters: regimen Daily Repeat, gender Male, age 6-8 weeks
- conditionInfo: in vivo, po, 0 mg/kg, 120 h, tissue Plasma, route oral GAVAGE, dose level Control, time 5 day, […]
Label Y when CHOLESTEROL is at or above 60 mg/dL; anything below gets N.

Worked examples, 5 compounds total:
compound: O=[N+]([O-])c1cc([As](=O)(O)O)ccc1O
category: Y

compound: Oc1c(Cl)cc(Cl)cc1Sc1cc(Cl)cc(Cl)c1O
category: N

compound: COC1=CC(=O)C[C@@H](C)[C@]12Oc1c(Cl)c(OC)cc(OC)c1C2=O
category: Y

compound: CCCC[C@@H](CC)COC(=O)c1ccccc1C(=O)OC[C@@H](CC)CCCC [BIS(2-ETHYLHEXYL)PHTHALATE]
category: N

compound: C=CCN
category: Y

Exam item: Please tell me: is the compound "c1ccc2[nH]c(-c3cscn3)nc2c1" at or over 60 mg/dL in terms of CHOLESTEROL?
Marked response: N
